experiment: Metabolic stability in mouse liver microsomes assessed as parent compound remaining after 30 mins; assay type: ADME, Microsome; conditions: liver microsomes, read-out: Stabilty
Provide the recorded remaining at 0.5 h for the entries that follow.
Give your result in % as a bare value.

Dear colleague, I am looking for the recorded remaining at 0.5 h of the following compound: CCn1c(=O)/c(=C2\Sc3cc(Cl)ccc3N2C)s/c1=C\c1ccccn1
13

Endpoint output: remaining at 0.5 h of CCn1c(=O)/c(=C2\Sc3ccc(Cl)cc3N2C)s/c1=C\c1ccccn1 . Value?
37

Need remaining at 0.5 h of CCn1c(=O)/c(=C2\Sc3ccccc3N2C)s/c1=C\c1ccncc1 , thanks.
6

Would you mind telling me what remaining at 0.5 h value was observed for CCn1c(=O)/c(=C2\Sc3ccc(F)cc3N2C)s/c1=C\c1ccccn1 ?
19

Using the record for CCn1c(=O)/c(=C2\Sc3ccc(Cl)cc3N2C)s/c1=C\c1ccncc1 , report its remaining at 0.5 h.
52

What does the record list as remaining at 0.5 h for CCn1c(=O)/c(=C2\Sc3cc(Cl)ccc3N2C)s/c1=C\c1ccncc1 ?
39

Name the reported remaining at 0.5 h value associated with the compound CCn1c(=O)/c(=C2\Sc3cc(F)ccc3N2C)s/c1=C\c1ccncc1
13

Which remaining at 0.5 h reading was recorded for the compound CCn1c(=O)/c(=C2\Sc3cccc(F)c3N2C)s/c1=C\c1ccccn1 ?
12

# input compound: CCn1c(=O)/c(=C2\Sc3cccc(F)c3N2C)s/c1=C\c1ccncc1 ; wanted: its remaining at 0.5 h
33

So what's the measured remaining at 0.5 h for this one? CCn1c(=O)/c(=C2\Sc3ccc(F)cc3N2C)s/c1=C\c1ccncc1
23

Quick check: remaining at 0.5 h of CCn1c(=O)/c(=C2\Sc3cc(F)ccc3N2C)s/c1=C\c1ccccn1 ?
5

Query: remaining at 0.5 h; subject: CCn1c(=O)/c(=C2\Sc3cccc(Cl)c3N2C)s/c1=C\c1ccccn1
38

Name the reported remaining at 0.5 h value associated with the compound CCn1c(=O)/c(=C2\Sc3c(F)cccc3N2C)s/c1=C\c1ccncc1
30

Fill blank: measured remaining at 0.5 h of the compound CCn1c(=O)/c(=C2\Sc3c(Cl)cccc3N2C)s/c1=C\c1ccccn1 is ____.
17

Which measured remaining at 0.5 h value corresponds to CCn1c(=O)/c(=C2\Sc3c(F)cccc3N2C)s/c1=C\c1ccccn1 ?
12

###

assay: Metabolic stability in mouse liver microsomes assessed as half life; format: ADME, Microsome; conditions: liver microsomes
So I've got a bunch of molecules here, and I need their half-life values.
Give the value, in units of min, as a plain number.

Query: half-life; subject: COc1ccc2c(c1)[C@]13CCCC[C@@H]1[C@H](C2)N(C)CC3
25

Which half-life is listed for CCn1c(=O)/c(=C2\Sc3cccc(Cl)c3N2C)s/c1=C\c1ccccn1 ?
23

Quick check: half-life of CCn1c(=O)/c(=C2\Sc3cc(Cl)ccc3N2C)s/c1=C\c1ccncc1 ?
22

Dear colleague, I am looking for the recorded half-life of the following molecule: CCn1c(=O)/c(=C2\Sc3ccc(Cl)cc3N2C)s/c1=C\c1ccccn1
17

Cited source for all entries: ChEMBL document CHEMBL4814053
